- Test system: L. pifanoi axenic amastigotes
- experiment.summary: Leishmanicidal assay on axenic amastigotes (inhibition of MTT reduction)
- Type: cell-based, Leishmania pifanoi
- applied.conditions: Table S1; 96 h; read-out: L. pifanoi amast. ax EC50
measurement.kind: EC50 (µM)
Give a bare numeral; the unit µM is implied.

# example entries with known answers
- structure.smiles: "O=C(CCl)c1cc(Br)c(Br)s1"
  output.unit: "µM"
  observed.measurement: 1.2
- structure.smiles: "COc1ccc(CNC(=O)Nc2nc(C)c(C(=O)CBr)s2)cc1"
  output.unit: "µM"
  observed.measurement: 14.4
- structure.smiles: "CCCCCCCC(=O)NNC(=O)c1c(O)c2ccccc2n(C)c1=O"
  output.unit: "µM"
  observed.measurement: 20.8

Here is the next item to consider.
What EC50 value was documented for this compound, O=C(CCl)c1cc(Cl)sc1Cl ?
2.4
